- target_or_system: T1, human MYCT1 (hMYCT1) (human, UniProt Q8N699 1-235, limits assumed)
- T1 construct: also called MYC Target 1
- T1 sequence: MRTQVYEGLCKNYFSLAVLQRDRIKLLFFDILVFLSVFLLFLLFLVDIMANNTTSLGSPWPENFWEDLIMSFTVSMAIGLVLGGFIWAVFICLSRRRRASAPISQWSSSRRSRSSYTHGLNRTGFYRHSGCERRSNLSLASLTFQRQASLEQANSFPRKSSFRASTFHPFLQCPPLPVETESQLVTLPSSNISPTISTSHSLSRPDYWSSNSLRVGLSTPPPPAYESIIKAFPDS
- protocol_notes: SPR koff ranking, single curve, antibody captured via anti-human Fc IgG, 10 nM MYCT1 as analyte, 1:1 binding model
recorded_endpoint: koff (s⁻¹)
Answers are plain numbers, in s⁻¹.

In: Specify reported koff for the binder shown: 11B6-p1-uIgG1K (antibody, V domains shown) VH: EVQLVESGGGLVKPGGSLKLSCAASGFTFSDFGIHWVRQAPEKGLEWVGYISSGSRTIHYADTVKGRFTISRDNAKNTLFLQMTNLRSEDTAIYYCARRDWDPEWLAYWGQGTLVTISA VL: DVVMTQAPLSLPVSLGDQASISCRSSLSLVHSQGHTYLHWYLQKPGQSPKLLIYKVSNRFSGVPDRFSGSGSGTDFTLKIRRVEAEDLGVYFCSQSTHVPFTFGSGTKLEIK
Out: 0.00933
